- Target Entity: mutEGFR (D770_N771insNPG, T790)
- Sequence (P00533 with tags, fused parts or gaps INS770NPG limits assumed): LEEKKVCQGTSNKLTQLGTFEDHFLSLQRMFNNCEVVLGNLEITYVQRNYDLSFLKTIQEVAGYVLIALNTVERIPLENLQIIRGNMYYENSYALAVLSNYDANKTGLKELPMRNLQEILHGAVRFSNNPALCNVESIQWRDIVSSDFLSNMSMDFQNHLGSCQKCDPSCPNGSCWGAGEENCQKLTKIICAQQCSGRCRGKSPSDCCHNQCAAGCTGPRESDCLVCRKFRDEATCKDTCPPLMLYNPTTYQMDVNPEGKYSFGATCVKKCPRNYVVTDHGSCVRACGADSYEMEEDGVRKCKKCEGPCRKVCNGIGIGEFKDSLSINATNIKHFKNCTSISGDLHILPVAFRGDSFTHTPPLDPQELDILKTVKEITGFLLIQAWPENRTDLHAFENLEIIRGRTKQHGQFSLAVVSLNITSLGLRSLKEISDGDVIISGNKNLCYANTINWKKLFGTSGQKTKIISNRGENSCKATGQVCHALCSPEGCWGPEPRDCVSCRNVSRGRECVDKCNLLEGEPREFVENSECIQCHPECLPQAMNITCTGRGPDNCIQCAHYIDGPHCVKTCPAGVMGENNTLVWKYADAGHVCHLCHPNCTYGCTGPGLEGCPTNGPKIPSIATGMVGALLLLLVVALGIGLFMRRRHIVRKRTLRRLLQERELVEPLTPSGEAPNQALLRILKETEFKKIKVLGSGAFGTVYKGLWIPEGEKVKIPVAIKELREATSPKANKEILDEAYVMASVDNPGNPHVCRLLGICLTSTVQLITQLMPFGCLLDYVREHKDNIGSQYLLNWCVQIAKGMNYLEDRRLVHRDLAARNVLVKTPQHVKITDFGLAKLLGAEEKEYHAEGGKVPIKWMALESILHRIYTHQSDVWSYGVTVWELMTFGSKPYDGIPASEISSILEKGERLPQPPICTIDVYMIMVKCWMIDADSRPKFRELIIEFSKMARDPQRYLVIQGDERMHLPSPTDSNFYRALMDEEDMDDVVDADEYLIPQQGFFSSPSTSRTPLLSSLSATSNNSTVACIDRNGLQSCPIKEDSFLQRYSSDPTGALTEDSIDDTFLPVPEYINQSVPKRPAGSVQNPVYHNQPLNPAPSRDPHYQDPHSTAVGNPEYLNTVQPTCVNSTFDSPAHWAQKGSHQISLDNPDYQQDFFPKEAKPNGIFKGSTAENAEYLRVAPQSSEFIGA
- Assay Notes: mutEGFR (D770_N771insNPG, T790) kinase assay
Metric: IC50 (nM)
Output spec: scalar in nM, unitless text.

CN(C)C/C=C\C(=O)N1CCC[C@H]1COc1cnccc1-c1[nH]c2cccnc2c1-c1ccccc1 [Example 98] ... 59.1
C=CC(=O)N1CCC[C@H]1COc1cnccc1-c1[nH]c2c(C)ccnc2c1-c1cc(Cl)ccc1F [Example 137] ... 1.55
C=CC(=O)N1CCC[C@H]1COc1cnccc1-c1[nH]c2cccnc2c1-c1ccc(F)c(OC(F)F)c1 [Example 103] ... 16.9

*Q* Quick one: IC50 for C=CC(=O)N(CC)CCOc1cnccc1-c1[nH]c2cccnc2c1-c1ccccc1 [Example 32] ?
*A* 29.9

*Q* Same thing, different compound: C#CC(=O)N1CC[C@@H](Oc2cnccc2-c2[nH]c3cccnc3c2-c2cc(Cl)ccc2F)C1 [Example 128]
*A* 208

====

- Target Entity: mutEGFR (D770_N771insSVD) (Homo sapiens, UniProt P00533, INS767SVD)
- Sequence (P00533 with tags, fused parts or gaps INS767SVD limits assumed): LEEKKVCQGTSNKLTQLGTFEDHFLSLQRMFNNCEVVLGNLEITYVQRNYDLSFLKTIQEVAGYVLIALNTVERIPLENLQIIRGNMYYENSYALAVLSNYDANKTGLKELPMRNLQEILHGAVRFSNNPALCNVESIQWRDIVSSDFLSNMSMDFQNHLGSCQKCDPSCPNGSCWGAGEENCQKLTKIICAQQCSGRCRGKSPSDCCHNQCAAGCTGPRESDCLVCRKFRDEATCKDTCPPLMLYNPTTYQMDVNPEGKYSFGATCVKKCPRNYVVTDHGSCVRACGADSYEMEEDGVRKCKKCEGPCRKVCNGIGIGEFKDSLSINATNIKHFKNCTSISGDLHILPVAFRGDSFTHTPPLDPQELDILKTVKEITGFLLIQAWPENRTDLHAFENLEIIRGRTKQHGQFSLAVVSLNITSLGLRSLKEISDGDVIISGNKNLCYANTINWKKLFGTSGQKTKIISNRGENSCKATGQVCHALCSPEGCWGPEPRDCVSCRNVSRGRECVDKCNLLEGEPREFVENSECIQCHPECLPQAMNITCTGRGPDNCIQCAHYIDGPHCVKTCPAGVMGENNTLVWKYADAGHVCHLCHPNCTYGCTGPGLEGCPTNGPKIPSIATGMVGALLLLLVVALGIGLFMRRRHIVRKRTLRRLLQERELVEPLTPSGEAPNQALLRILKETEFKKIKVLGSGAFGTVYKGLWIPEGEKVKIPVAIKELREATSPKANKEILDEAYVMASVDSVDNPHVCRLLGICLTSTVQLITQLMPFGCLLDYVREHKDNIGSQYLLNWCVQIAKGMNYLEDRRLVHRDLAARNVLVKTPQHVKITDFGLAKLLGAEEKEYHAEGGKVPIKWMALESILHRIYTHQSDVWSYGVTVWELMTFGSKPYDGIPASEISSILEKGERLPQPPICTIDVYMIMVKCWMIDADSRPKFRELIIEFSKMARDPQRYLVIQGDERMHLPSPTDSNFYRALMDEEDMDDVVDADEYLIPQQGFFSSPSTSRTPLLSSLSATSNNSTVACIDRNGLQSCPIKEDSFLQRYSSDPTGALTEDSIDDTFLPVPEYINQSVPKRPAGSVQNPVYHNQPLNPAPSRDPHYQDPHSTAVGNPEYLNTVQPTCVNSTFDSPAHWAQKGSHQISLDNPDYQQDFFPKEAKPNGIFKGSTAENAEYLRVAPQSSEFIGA
- Assay Notes: Exon20-mutant-EGFR (D770_N771insSVD) TR-FRET kinase assay
- Reported Conditions: 2 mM ATP, 15 min preincubation
We begin with a simple list: items and their reported log10(IC50).
Answers are given as log10 of IC50 in nM.

C=CS(=O)(=O)N(C)CCOc1cnccc1-c1[nH]c2cccnc2c1-c1ccccc1 ... -0.30
C=CC(=O)N(C)CCOc1cnccc1-c1[nH]c2cccnc2c1-c1ccc(Cl)c(Cl)c1 ... 1.57
CN(C)C/C=C/C(=O)N1CCC[C@H]1COc1cnccc1-c1[nH]c2cccnc2c1-c1cccc(C(F)(F)F)c1 ... 0.54
C=CS(=O)(=O)N1CCC[C@H]1COc1cnccc1-c1[nH]c2cccnc2c1-c1ccccc1 ... -0.98
C=CS(=O)(=O)N1CCC[C@H]1COc1cnccc1-c1[nH]c2c(C)ccnc2c1-c1ccccc1 ... -0.67

*Q* Quick one: log10(IC50) for C=CS(=O)(=O)N1CCC(Oc2cnccc2-c2[nH]c3cccnc3c2-c2cc(C)ccc2F)C1 (racemic) ?
*A* 1.14

*Q* Same thing, different compound: C=CS(=O)(=O)N1CC[C@@]1(C)COc1cnccc1-c1[nH]c2cccnc2c1-c1ccccc1
*A* 1.51

*Q* Same thing, different compound: C=CC(=O)N1CCC(Oc2cnccc2-c2[nH]c3cccnc3c2-c2cc(Cl)ccc2F)C1 (racemic)
*A* 1.40

*Q* Same thing, different compound: C=CC(=O)N1CCC(Oc2cnccc2-c2[nH]c3cccnc3c2-c2cccc(Cl)c2)C1 (racemic)
*A* 1.15

*Q* Same thing, different compound: C=CC(=O)N1CCC[C@H]1COc1cnccc1-c1[nH]c2cccnc2c1-c1cccc(F)c1F
*A* -0.04

*Q* Same thing, different compound: CN(C)CC#CC(=O)N1CCC[C@H]1COc1cnccc1-c1[nH]c2cccnc2c1-c1ccccc1
*A* 0.05

====

- Target Entity: mutEGFR (D770_N771insSVD) (Homo sapiens, UniProt P00533, INS767SVD)
- Assay Notes: Exon20-mutant-EGFR (D770_N771insSVD) TR-FRET kinase assay
- Assay type: biochemical
- Reported Conditions: 2 mM ATP, 15 min preincubation
We begin with a simple list: items and their reported log10(IC50).
Answers are given as log10 of IC50 in µM.

Examples from the recorded data:
CN(C)C/C=C/C(=O)N1CCOCC1COc1cnccc1-c1[nH]c2cccnc2c1-c1cc(Cl)ccc1F (centres unmarked) ... -0.79
C=CC(=O)N(C)CCOc1cnccc1-c1[nH]c2cccnc2c1-c1ccccc1 ... -2.12
C=CS(=O)(=O)N(C)C[C@H](C)Oc1cnccc1-c1[nH]c2cccnc2c1-c1ccccc1 (stereo in doubt) ... -1.66

Consider the record given below.
*Q* Quick one: log10(IC50) for CN(C)C/C=C/C(=O)N1CCC[C@H]1COc1cnccc1-c1[nH]c2cccnc2c1-c1ccccc1 ?
*A* -2.43

====

We begin with a simple list: items and their reported pIC50.
- Target Entity: mutEGFR (D770_N771insSVD) (Homo sapiens, UniProt P00533, INS767SVD)
- Assay Notes: Exon20-mutant-EGFR (D770_N771insSVD) TR-FRET kinase assay
- Format: biochemical
- Reported Conditions: 2 mM ATP, 15 min preincubation
Just so you know, pIC50 here is -log10 of the concentration in molar units; reply with that number alone.

Examples from the recorded data:
CC#CC(=O)N(C)CCOc1cnccc1-c1[nH]c2cccnc2c1-c1ccccc1 ... 5.19
C=CC(=O)N(C)CCOc1cnccc1-c1[nH]c2cccnc2c1-c1ccc2cc[nH]c2c1 ... 8.12
C=CS(=O)(=O)N1CCC[C@H]1COc1cnccc1-c1[nH]c2cccnc2c1-c1cc(C(F)(F)F)ccc1F ... 7.28

Consider the record given below.
*Q* Quick one: pIC50 for C=CC(=O)N(C)CCOc1cnccc1-c1[nH]c2cccnc2c1-c1cccc(C(F)(F)F)c1 ?
*A* 7.24

====

- Target Entity: mutEGFR (D770_N771insNPG, T790)
- Assay Notes: mutEGFR (D770_N771insNPG, T790) kinase assay
We begin with a simple list: items and their reported pIC50.
Just so you know, pIC50 here is -log10 of the concentration in molar units; reply with that number alone.

Examples from the recorded data:
C=CC(=O)N(C)CCOc1cnccc1-c1[nH]c2cccnc2c1-c1ccc(F)c(Cl)c1 ... 7.68
C=CC(=O)N(C)CCOc1cnccc1-c1[nH]c2cccnc2c1-c1cccc(C)c1 ... 7.87
C=CC(=O)N1CCC[C@H]1COc1cnccc1-c1[nH]c2cccnc2c1-c1ccccc1Cl ... 7.97

*Q* Quick one: pIC50 for C=CC(=O)NCCOc1cnccc1-c1[nH]c2cc(F)cnc2c1-c1ccccc1 ?
*A* 5.26

*Q* Same thing, different molecule: C=CC(=O)N(C)CCOc1cnccc1-c1[nH]c2cccnc2c1-c1cccc(F)c1
*A* 7.33

*Q* Same thing, different molecule: C=CC(=O)N1CC[C@H]1COc1cnccc1-c1[nH]c2cccnc2c1-c1ccccc1 (single isomer, unassigned)
*A* 6.31

====

- Target Entity: mutEGFR (D770_N771insNPG, T790)
- Assay Notes: mutEGFR (D770_N771insNPG, T790) kinase assay
- Assay type: biochemical, human
pIC50: −log10 of the molar value.
Label 1 when pIC50 is at or above 8; otherwise label -1.

Consider the worked cases shown below.
C=CC(=O)N1CCC[C@H]1COc1cnccc1-c1[nH]c2cccnc2c1-c1cc(Cl)ccc1F [Example 42] ... 1
C=CC(=O)N(C)CCOc1cnccc1-c1[nH]c2cccnc2c1-c1ccc(Cl)c(OC)c1 [Example 15] ... -1
C=CS(=O)(=O)N(C)CCOc1cnccc1-c1[nH]c2cccnc2c1-c1cc(F)ccc1F [Example 61] ... 1

*Q* Say whether C=CC(=O)N(C)CCOc1cnccc1-c1[nH]c2cccnc2c1-c1cc(OC)ccc1F [Example 56] shows pIC50 of 8 or more.
*A* -1

*Q* Same thing, different compound: C=CC(=O)N(C)CCOc1cnccc1-c1[nH]c2cccnc2c1-c1cc(F)ccc1F [Example 46]
*A* -1

*Q* Same thing, different compound: C=CS(=O)(=O)N1CC[C@@]1(C)COc1cnccc1-c1[nH]c2cccnc2c1-c1ccccc1 [Example 146]
*A* -1

====

- Target Entity: mutEGFR (D770_N771insNPG, T790)
- Assay Notes: mutEGFR (D770_N771insNPG, T790) kinase assay
pIC50: −log10 of the molar value.
Label 1 (yes) when pIC50 is at or above 8; otherwise label 0 (no).

Consider the worked cases shown below.
CN(C)CC#CC(=O)N1CCC[C@H]1COc1cnccc1-c1[nH]c2cccnc2c1-c1ccccc1 [Example 100] ... 1 (yes)
C=CS(=O)(=O)N1CCC[C@H]1COc1cnccc1-c1[nH]c2c(C)ccnc2c1-c1cc(Cl)ccc1F [Example 138] ... 1 (yes)
C=CS(=O)(=O)N1CC[C@H]1COc1cnccc1-c1[nH]c2cccnc2c1-c1ccccc1 (single isomer, unassigned) [Example 141] ... 1 (yes)
C=CC(=O)N1CCC[C@H]1COc1cnccc1-c1[nH]c2cccnc2c1-c1ccc2ccoc2c1 [Example 82] ... 1 (yes)
C=CC(=O)N1CC[C@@H]1COc1cnccc1-c1[nH]c2cccnc2c1-c1ccccc1 (single isomer, unassigned) [Example 140] ... 1 (yes)
C=CS(=O)(=O)N(C)CCOc1cnccc1-c1[nH]c2cccnc2c1-c1ccccc1CC [Example 72] ... 0 (no)

*Q* Say whether C=CC(=O)N(C)CCOc1cnccc1-c1[nH]c2cccnc2c1-c1ccc2cccnc2c1 [Example 18] shows pIC50 of 8 or more.
*A* 0 (no)

====

- Target Entity: mutEGFR (D770_N771insSVD) (Homo sapiens, UniProt P00533, INS767SVD)
- Assay Notes: Exon20-mutant-EGFR (D770_N771insSVD) TR-FRET kinase assay
- Reported Conditions: 2 mM ATP, 15 min preincubation
Metric: log10(IC50) (log10 of the value in nM)
Answers are given as log10 of IC50 in nM.

Examples from the recorded data:
C=CC(=O)N1C[C@@H](N(C)CCN(C)C)C[C@H]1COc1cnccc1-c1[nH]c2cccnc2c1-c1ccccc1 (single isomer, unassigned) [Example 131] ... 0.07
C=CC(=O)N1CCOCC1COc1cnccc1-c1[nH]c2cccnc2c1-c1cc(Cl)ccc1F (stereo not shown) ... 1.04
C=CC(=O)N(C)CCOc1cnccc1-c1[nH]c2cccnc2c1-c1cccc(F)c1 ... 1.21
C=CC(=O)N1CCC[C@H]1COc1cnccc1-c1[nH]c2cccnc2c1-c1ccc2ccoc2c1 ... -0.57
C=CC(=O)N(C)CCOc1cnccc1-c1[nH]c2cccnc2c1-c1cccc(C)c1 ... 0.78

Consider the record given below.
*Q* Quick one: log10(IC50) for C=CC(=O)N1CCC[C@H]1COc1cnccc1-c1[nH]c2cccnc2c1-c1cc(C#N)ccc1F ?
*A* 1.54

Reference source for all entries: patent US20260035365A1
